Tested on: parental HEK cells
Assay: HEK parental Agonist Counterscreen Assay (non-transfected cells)
Format: cell-based
Details: HEK Agonist Activity
Quantity measured: Lipophilic Efficiency (logD)

>  <Molecule>
Cc1cc(Cl)ccc1OC(C)C(=O)NNC(=O)c1ccccc1 (centres unmarked)

>  <Lipophilic Efficiency (logD)>
1.41

$$$$

1 = O=C(CSCc1ccc(Cl)cc1Cl)NNC(=O)c1ccccc1
2 = COc1ccc(C2=NN(CC(=O)NCCCN(C)c3ccccc3)C(=O)CC2)cc1
Just curious, which one has the larger Lipophilic Efficiency (logD) reading, 1 or 2 ? Refer to your chosen item by its label in the answer. 2

====

Tested on: parental HEK cells
Assay: HEK parental Agonist Counterscreen Assay (non-transfected cells)
Assay type: cell-based
Conditions: HEK Agonist Activity section
Quantity measured: Lipophilic Efficiency (logP)

>  <Compound>
O=C(CCCOc1ccc(Cl)cc1Cl)NNC(=O)Cc1ccc2c(c1)OCCO2 [SR-01000065653]

>  <Target or test system>
parental HEK cells

>  <Quantity measured>
Lipophilic Efficiency (logP)

>  <Observed>
1.87

$$$$
>  <Compound>
CC(C)C(=O)NNC(=O)C(C)Oc1ccc(Cl)cc1Cl (stereo not drawn) [SR-01000361172]

>  <Target or test system>
parental HEK cells

>  <Quantity measured>
Lipophilic Efficiency (logP)

>  <Observed>
1.93

$$$$
>  <Compound>
O=C(Cn1cnc2ccccc21)NCCCn1ccc2ccccc21 [SR-01000926263]

>  <Target or test system>
parental HEK cells

>  <Quantity measured>
Lipophilic Efficiency (logP)

>  <Observed>
2.29

$$$$
>  <Compound>
O=C(CSc1ccc(Cl)cc1)Nc1nnc(-c2ccco2)o1 [SR-01000021433]

>  <Target or test system>
parental HEK cells

>  <Quantity measured>
Lipophilic Efficiency (logP)

>  <Observed>
2.29

$$$$

1 = CC(CCc1ccccc1)NC(=O)c1ccc2c(c1)C(Cc1ccccc1)C(=O)C[S+]2[O-] (stereo not drawn) [SR-01000129880]
2 = O=C(Cc1cccc2ccccc12)NCC(=O)NNC(=O)c1ccco1 [SR-01000069451]
Just curious, which one has the larger Lipophilic Efficiency (logP) reading, 1 or 2 ? Refer to your chosen item by its label in the answer. 2
(2: 3.83, 1: 1.21)

A = CCc1c(C2C(C(=O)OCc3ccccc3)=C(C)CC3=C2C(=O)CCC3)ccc(OC)c1OC (stereo not drawn) [SR-01000406098]
B = COc1ccccc1CN1CCNC(=O)C1CC(=O)NCCCN1CCc2ccccc21 (stereo not drawn) [SR-01000176838]
C = Cc1ccc(NC(=O)NCCCc2ccccc2)cc1 [SR-01000299370]
Arrange these compounds by their Lipophilic Efficiency (logP), starting with the largest number. Your answer should be the labels, listed in the requested order. B, A, C

I = CN(C(=O)CN1C(=O)NC(C)(c2ccc3ccccc3c2)C1=O)C1CCCCC1 (stereo not drawn) [SR-01000048373]
II = Cc1cc(-c2nnc(NC(=O)CCc3ccccc3)o2)n(C)n1 [SR-01000920602]
Looking only at measured Lipophilic Efficiency (logP), which entry is lower, I or II ? Refer to your chosen item by its label in the answer. I
(I: 1.79, II: 3.19)

====

Target: UniProt:Q6DWJ6
Test: GPR139 Agonist titration / agonist counterscreen assay (calcium detection, HEK-GPR139 cells)
Format: cell-based
Set-up: expressed in transfected cells; host or cells: HEK Aequorin cells, Maxcyte transient transfection
Conditions: GPR139 Agonist Activity; activity relative to known control
Quantity measured: Averaged Max % Response (±St. Dev.) (%)

>  <Compound>
CC(NC(=O)Cn1cc(NC(=O)c2ccccc2F)cn1)c1ccccc1Cl (stereo not drawn)

>  <Averaged Max % Response (±St. Dev.) (%)>
94.95

$$$$
>  <Compound>
Cc1c(C(=O)NC(C)(C)CO)cnn1-c1ncc2c(n1)-c1ccccc1CC2

>  <Averaged Max % Response (±St. Dev.) (%)>
105.15

$$$$
>  <Compound>
O=C(COc1ccc2ccccc2c1)NNC(=O)Cc1cccc2ccccc12

>  <Averaged Max % Response (±St. Dev.) (%)>
101.45

$$$$
>  <Compound>
CCc1c(C2C(C(=O)OCc3ccccc3)=C(C)CC3=C2C(=O)CCC3)ccc(OC)c1OC (stereo not drawn)

>  <Averaged Max % Response (±St. Dev.) (%)>
80.99

$$$$
>  <Compound>
Cc1ccc(NC(=O)NNC(=O)COc2ccc(Cl)cc2)c(C)c1

>  <Averaged Max % Response (±St. Dev.) (%)>
94.36

$$$$
>  <Compound>
O=C(NCCn1ccc2ccccc21)c1cccc(Cl)c1

>  <Averaged Max % Response (±St. Dev.) (%)>
93.55

$$$$
>  <Compound>
CC(Oc1ccc(O)cc1Cl)C(=O)NNC(=O)c1cccc(F)c1 (stereo not drawn)

>  <Averaged Max % Response (±St. Dev.) (%)>
113.77

$$$$
>  <Compound>
COc1ccc(SCC(=O)NNC(=S)Nc2ccccc2)cc1

>  <Averaged Max % Response (±St. Dev.) (%)>
81.65

$$$$
>  <Compound>
Cc1ccccc1C(=O)NNC(=O)C(C)Oc1ccc(Cl)cc1Cl (stereo not drawn)

>  <Averaged Max % Response (±St. Dev.) (%)>
91.99

$$$$
>  <Compound>
O=C(CC1CCN(Cc2ccccc2O)C1=O)C1CCC(c2cccc(O)c2)C(O)C1 (stereo not drawn)

>  <Averaged Max % Response (±St. Dev.) (%)>
101.74

$$$$
>  <Compound>
COc1ccc(CCn2nc(-c3cccnc3)[nH]c2=O)cc1

>  <Averaged Max % Response (±St. Dev.) (%)>
86.17

$$$$
>  <Compound>
Cc1ccc(SCC(=O)NNC(=O)c2cccs2)cc1

>  <Averaged Max % Response (±St. Dev.) (%)>
99.20

$$$$
>  <Compound>
COc1cccc(C(=O)NNC(=O)C(C)Oc2ccc(Cl)cc2Cl)c1 (stereo not drawn)

>  <Averaged Max % Response (±St. Dev.) (%)>
126.50

$$$$
>  <Compound>
COc1cc(C(=O)NNC(=O)COc2ccc3ccccc3c2)cc(OC)c1OC

>  <Averaged Max % Response (±St. Dev.) (%)>
81.95

$$$$
>  <Compound>
CN(C)C(CNC(=O)Nc1ccc(Cl)c(Cl)c1)c1cccnc1 (stereo not drawn)

>  <Averaged Max % Response (±St. Dev.) (%)>
96.92

$$$$
>  <Compound>
COc1cc(C(C)=O)ccc1OCC(=O)OCC(=O)NCCCc1ccccc1

>  <Averaged Max % Response (±St. Dev.) (%)>
119.47

$$$$
>  <Compound>
COc1cccc(COC(=O)NC(C)C2COc3ccccc3O2)c1 (stereo not drawn)

>  <Averaged Max % Response (±St. Dev.) (%)>
96.08

$$$$
>  <Compound>
CC1CCCC(NC(=O)CN2CCN(Cc3ccc(F)cc3Cl)C2=O)C1C (stereo not drawn)

>  <Averaged Max % Response (±St. Dev.) (%)>
98.80

$$$$
>  <Compound>
COc1ccc(CCC(=O)Nc2ccc(/C(N)=N/O)cc2)cc1

>  <Averaged Max % Response (±St. Dev.) (%)>
114.46

$$$$
>  <Compound>
COC(=O)c1ccc(CSc2nnc(N)s2)cc1

>  <Averaged Max % Response (±St. Dev.) (%)>
89.11

$$$$
>  <Compound>
O=C(NCCc1ccc(Cl)cc1)c1ccc(N2CC3CC(C2)c2cccc(=O)n2C3)c(NS(=O)(=O)c2ccc3c(c2)OCCO3)c1 (stereo not drawn)

>  <Averaged Max % Response (±St. Dev.) (%)>
116.62

$$$$
>  <Compound>
O=c1nc(SCc2ccccc2F)c2c([nH]1)CCC2

>  <Averaged Max % Response (±St. Dev.) (%)>
101.00

$$$$
>  <Compound>
CCOC(=O)C1C2C=CC3(CN(C(C)c4ccc(Br)cc4)C(=O)C13)O2 (stereo not drawn)

>  <Averaged Max % Response (±St. Dev.) (%)>
84.13

$$$$
>  <Compound>
Cc1ccccc1SCC(=O)NNC(=O)C1CCCCC1

>  <Averaged Max % Response (±St. Dev.) (%)>
99.23

$$$$

====

Molecular target: GPR139 (Homo sapiens, UniProt Q6DWJ6)
Sequence (Q6DWJ6 whole entry): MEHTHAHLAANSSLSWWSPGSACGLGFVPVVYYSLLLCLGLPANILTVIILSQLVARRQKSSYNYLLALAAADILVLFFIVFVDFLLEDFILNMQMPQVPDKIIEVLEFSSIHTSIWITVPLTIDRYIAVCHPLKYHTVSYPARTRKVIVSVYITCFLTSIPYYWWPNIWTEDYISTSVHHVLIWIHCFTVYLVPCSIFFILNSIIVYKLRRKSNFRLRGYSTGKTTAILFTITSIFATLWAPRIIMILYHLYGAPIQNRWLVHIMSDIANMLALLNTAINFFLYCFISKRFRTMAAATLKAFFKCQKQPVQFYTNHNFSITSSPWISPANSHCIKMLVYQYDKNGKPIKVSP
Assay: GPR139 Antagonist titration assay (calcium detection, HEK-GPR139 cells, vs EC80 of S-JNJ-63533054)
Conditions: activity relative to known control
Quantity measured: GPR139 Antagonist Activity Averaged Max % Response (±St. Dev.) (%)

>  <Given smiles>
COc1cc(C(=O)Nc2ccc(N3C(=O)c4ccc(Cl)cc4C3=O)c(C)c2)cc(OC)c1OC

>  <Unit of measure>
%

>  <Observed>
82.63

$$$$
>  <Given smiles>
Cc1ccc(-n2cc(-c3ccccc3)nc2SCC(=O)Nc2cccc(C)c2C)cc1

>  <Unit of measure>
%

>  <Observed>
69.58

$$$$
>  <Given smiles>
COc1cccc(OC)c1C(=O)Oc1ccc2c(=O)c(-c3ccc(Cl)cc3)c(C(F)(F)F)oc2c1

>  <Unit of measure>
%

>  <Observed>
90.79

$$$$
>  <Given smiles>
Cc1ccc(-c2cn(-c3ccccc3)c(SCC(=O)Nc3ccccc3C)n2)cc1

>  <Unit of measure>
%

>  <Observed>
69.32

$$$$
>  <Given smiles>
O=C(CS(=O)(=O)c1ccccc1)Nc1ccc(Oc2ccccc2)cc1

>  <Unit of measure>
%

>  <Observed>
84.30

$$$$

meta.source: patent US20250099420A1
